Molecular target: T1, TNFR1 (Homo sapiens, UniProt P19438)
T1 chain: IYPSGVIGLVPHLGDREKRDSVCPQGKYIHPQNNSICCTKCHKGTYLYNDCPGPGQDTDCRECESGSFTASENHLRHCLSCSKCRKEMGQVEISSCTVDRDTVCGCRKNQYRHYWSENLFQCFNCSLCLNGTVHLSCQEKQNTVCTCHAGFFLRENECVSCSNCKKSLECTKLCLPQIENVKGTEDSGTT
Assay: yeast display SC50
readout: apparent Kd (screen) (nM)

Study these solved cases before continuing.
S77M (designed binder) SMEEEVEKAAKEYEKKKKEAIEKHLEKLKAKDKEAAERFLKELEEAAKEYAKDEAKTMSEEEAKRRAKKYKEKVLLMELSEEEQKEIKEAEEKLVRTILKYVEEAAK | 1.4
A105N (designed binder) SMEEEVEKAAKEYEKKKKEAIEKHLEKLKAKDKEAAERFLKELEEAAKEYAKDEAKTMSEEEAKRRAKKYKEKVLLSELSEEEQKEIKEAEEKLVRTILKYVEENAK | 1.86

I: K100L (designed binder) SMEEEVEKAAKEYEKKKKEAIEKHLEKLKAKDKEAAERFLKELEEAAKEYAKDEAKTMSEEEAKRRAKKYKEKVLLSELSEEEQKEIKEAEEKLVRTILLYVEEAAK
II: A90M (designed binder) SMEEEVEKAAKEYEKKKKEAIEKHLEKLKAKDKEAAERFLKELEEAAKEYAKDEAKTMSEEEAKRRAKKYKEKVLLSELSEEEQKEIKEMEEKLVRTILKYVEEAAK
Form field 'greater apparent Kd (screen)' accepts I or II ; which applies? Your answer should be the label attached to the chosen record.
I

P: E45G (designed binder) SMEEEVEKAAKEYEKKKKEAIEKHLEKLKAKDKEAAERFLKELEGAAKEYAKDEAKTMSEEEAKRRAKKYKEKVLLSELSEEEQKEIKEAEEKLVRTILKYVEEAAK
Q: E42V (designed binder) SMEEEVEKAAKEYEKKKKEAIEKHLEKLKAKDKEAAERFLKVLEEAAKEYAKDEAKTMSEEEAKRRAKKYKEKVLLSELSEEEQKEIKEAEEKLVRTILKYVEEAAK
Form field 'greater apparent Kd (screen)' accepts P or Q ; which applies? Your answer should be the label attached to the chosen record.
P

a: I21T (designed binder) SMEEEVEKAAKEYEKKKKEATEKHLEKLKAKDKEAAERFLKELEEAAKEYAKDEAKTMSEEEAKRRAKKYKEKVLLSELSEEEQKEIKEAEEKLVRTILKYVEEAAK
b: E49S (designed binder) SMEEEVEKAAKEYEKKKKEAIEKHLEKLKAKDKEAAERFLKELEEAAKSYAKDEAKTMSEEEAKRRAKKYKEKVLLSELSEEEQKEIKEAEEKLVRTILKYVEEAAK
Lower value for measured apparent Kd (screen)? Options: a , b Your answer should be the label attached to the chosen record.
a

All values here come from paper PMC12416549.
